The measurements presented in this section are drawn from the supplement of paper PMC10065799.

I'd appreciate it if you could supply phosphorylation enrichment values for the items below.
SYSTEM_NAME: EPHB1 (UniProt P54762)
Sequence (P54762 whole entry, looked up): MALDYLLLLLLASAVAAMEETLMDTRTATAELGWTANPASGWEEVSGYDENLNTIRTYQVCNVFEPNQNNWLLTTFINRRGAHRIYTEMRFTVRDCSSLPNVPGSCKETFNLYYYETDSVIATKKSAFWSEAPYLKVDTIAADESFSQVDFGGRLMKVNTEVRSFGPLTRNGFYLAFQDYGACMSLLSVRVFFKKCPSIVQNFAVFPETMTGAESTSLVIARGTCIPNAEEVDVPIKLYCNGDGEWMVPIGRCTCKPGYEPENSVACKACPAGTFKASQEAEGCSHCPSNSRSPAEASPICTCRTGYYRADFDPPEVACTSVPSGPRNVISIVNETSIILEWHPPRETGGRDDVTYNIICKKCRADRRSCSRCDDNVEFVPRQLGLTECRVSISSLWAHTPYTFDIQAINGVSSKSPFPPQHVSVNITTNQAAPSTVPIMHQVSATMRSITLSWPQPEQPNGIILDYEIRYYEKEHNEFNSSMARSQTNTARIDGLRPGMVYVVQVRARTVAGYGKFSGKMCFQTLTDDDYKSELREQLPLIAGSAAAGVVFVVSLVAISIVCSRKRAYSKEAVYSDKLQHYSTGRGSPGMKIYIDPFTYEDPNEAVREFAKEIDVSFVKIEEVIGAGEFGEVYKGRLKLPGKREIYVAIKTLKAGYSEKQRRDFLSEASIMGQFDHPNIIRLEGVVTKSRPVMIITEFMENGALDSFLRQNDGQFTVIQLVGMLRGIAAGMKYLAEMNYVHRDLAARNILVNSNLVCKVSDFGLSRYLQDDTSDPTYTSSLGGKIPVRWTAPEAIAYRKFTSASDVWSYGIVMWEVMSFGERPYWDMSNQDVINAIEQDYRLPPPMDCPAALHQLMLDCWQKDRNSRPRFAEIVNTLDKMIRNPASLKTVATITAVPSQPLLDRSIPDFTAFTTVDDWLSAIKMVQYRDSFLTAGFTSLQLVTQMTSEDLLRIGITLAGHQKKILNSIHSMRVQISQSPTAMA
TEST_DESCRIPTION: phosphorylation enrichment, bacterial display (enrichment ratio); higher = better substrate or ligand; peptides without Tyr show the background;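 note: 11-residue human phosphosite peptides and single-mutation variants displayed on the E. coli surface, counted by deep sequencing, each peptide's frequency after selection divided by its frequency in the unselected input library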;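 note: frequency after pTyr selection over input frequency; kinase dosed for 20-30% of maximal phosphorylation in three min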
Answers are plain numbers.

Quick one: give me phosphorylation enrichment for each item below, same order please.
1. FAELVYTGFWH [ASS1_Y322]
2. DAVAVYDGKIS [SH2D1A_Y7_H8D]
3. PTDSVYVMPTV [MYO7A_Y1668]
4. ELAKYYKLHHI [AK7_Y391_N389K]
5. AKAFIYASHIV [ZNF573_Y229_G224A]
6. ARGMEYLASKK [FGFR1_Y613]
7. WVFNHYRWIIW [BRCA2_Y2624_YF]
8. SLVGCYNLTFM [HS6ST3_Y323]

Result:
1: 2.21; 2: 0.589; 3: 1.15; 4: 0.589; 5: 0.7; 6: 0.356; 7: 0.611; 8: 0.694

Quick one: give me phosphorylation enrichment for each item below, same order please.
1. TNFSLYLRSLE [MTM1_Y71_R69S_YF]
2. DKNSSYFADWF [TUBB8_Y340_L345F]
3. YGPPQYNIQYS [ERBB2IP_Y977]

Result:
[0.754, 0.676, 0.412]

Quick one: give me phosphorylation enrichment for each item below, same order please.
1. YCVDCYKNFVA [FHL1_Y213]
2. KKYPDYIQSAM [SGMS2_Y59_I62S]
3. IDFARYWHGND [MMP11_Y162_D166N]
4. ALMGLYHGQVL [HADHA_Y343]
5. FTDGQYWIRGR [ACSF3_Y466_K462T]
6. KDFNKYVAFIE [KDM4B_Y31_YF]
7. APRKVYDTRDD [ZFPL1_Y215]

Result:
0.564
0.543
0.556
0.545
0.509
0.43
0.45

Quick one: give me phosphorylation enrichment for each item below, same order please.
1. RNDQVYQPLRD [CD3D_Y149]
2. FTDPFYDFEIE [ZC3H18_Y372_A368T_YF]
3. ELTAKYLNFFQ [P3H4_Y181_YF]

Result:
1: 1.26; 2: 1.54; 3: 0.564

Quick one: give me phosphorylation enrichment for each item below, same order please.
1. KMMGRYEMYAR [UPB1_Y362_T359M]
2. GFSDPYVKAFL [SYT3_Y470_S474F]

Result:
[0.374, 0.595]

Quick one: give me phosphorylation enrichment for each item below, same order please.
1. AKAEICEMRPL [COX10_Y97_Y97C]
2. FSPPYYHRNCM [HGD_Y334_R330S]
3. VYYGSYSCPYG [NKAP_Y104_R106C]

Result:
[0.469, 0.558, 2.45]
